Emax: recorded values
TARGET OR SYSTEM: UniProtKB P35372
Sequence (P35372 whole entry): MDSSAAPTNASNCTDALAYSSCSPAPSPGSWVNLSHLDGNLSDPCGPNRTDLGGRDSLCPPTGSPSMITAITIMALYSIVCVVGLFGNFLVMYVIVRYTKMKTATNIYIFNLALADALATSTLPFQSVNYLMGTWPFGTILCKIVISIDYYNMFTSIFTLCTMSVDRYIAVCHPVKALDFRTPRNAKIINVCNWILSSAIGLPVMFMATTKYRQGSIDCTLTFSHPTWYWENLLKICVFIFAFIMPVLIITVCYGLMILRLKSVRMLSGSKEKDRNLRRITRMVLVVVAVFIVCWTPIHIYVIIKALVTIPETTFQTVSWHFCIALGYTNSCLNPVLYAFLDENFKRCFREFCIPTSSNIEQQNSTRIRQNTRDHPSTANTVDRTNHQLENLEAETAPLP
Sequence (P32121 whole entry partner): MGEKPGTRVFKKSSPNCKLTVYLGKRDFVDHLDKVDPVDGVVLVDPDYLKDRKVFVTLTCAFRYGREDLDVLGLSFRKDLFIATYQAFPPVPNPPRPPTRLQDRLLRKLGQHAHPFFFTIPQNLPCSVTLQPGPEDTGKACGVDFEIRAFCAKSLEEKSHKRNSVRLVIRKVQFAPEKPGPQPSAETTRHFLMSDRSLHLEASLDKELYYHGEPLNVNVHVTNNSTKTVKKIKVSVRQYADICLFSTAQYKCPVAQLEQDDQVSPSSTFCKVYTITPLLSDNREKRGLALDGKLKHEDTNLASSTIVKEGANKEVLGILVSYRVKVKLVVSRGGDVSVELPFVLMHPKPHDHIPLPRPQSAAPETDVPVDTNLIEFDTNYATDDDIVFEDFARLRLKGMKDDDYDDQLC
METHOD DESCRIPTION: cell-based
Parameters: host or cells: CHO-K1 OPRM1 β-arrestin-2 cells
MEASUREMENT SETUP: read-out: % Efficacy (maximum efficacy based on DAMGO maximum stimulation)

>  <SAMPLE SMILES>
COC(=O)[C@@H]1C=C(OC(=O)c2cccc(CO)c2)C(=O)[C@H]2[C@@]1(C)CC[C@H]1C(=O)O[C@H](c3ccoc3)C[C@]21C

>  <TARGET OR SYSTEM>
UniProtKB P35372

>  <Emax / %>
75

$$$$
>  <SAMPLE SMILES>
COC(=O)[C@@H]1C=C(OC(=O)c2ccc3c(c2)C(=O)NC3)C(=O)[C@H]2[C@@]1(C)CC[C@H]1C(=O)O[C@H](c3ccoc3)C[C@]21C

>  <TARGET OR SYSTEM>
UniProtKB P35372

>  <Emax / %>
76

$$$$
>  <SAMPLE SMILES>
COC(=O)[C@@H]1C=C(OC(=O)c2ccc(CO)cc2)C(=O)[C@H]2[C@@]1(C)CC[C@H]1C(=O)O[C@H](c3ccoc3)C[C@]21C

>  <TARGET OR SYSTEM>
UniProtKB P35372

>  <Emax / %>
81

$$$$
>  <SAMPLE SMILES>
COC(=O)[C@@H]1C=C(OC(=O)c2ccc(C(N)=O)cc2)C(=O)[C@H]2[C@@]1(C)CC[C@H]1C(=O)O[C@H](c3ccoc3)C[C@]21C

>  <TARGET OR SYSTEM>
UniProtKB P35372

>  <Emax / %>
119

$$$$
>  <SAMPLE SMILES>
COCc1ccc(C(=O)OC2=C[C@@H](C(=O)OC)[C@]3(C)CC[C@H]4C(=O)O[C@H](c5ccoc5)C[C@]4(C)[C@H]3C2=O)cc1

>  <TARGET OR SYSTEM>
UniProtKB P35372

>  <Emax / %>
74

$$$$
>  <SAMPLE SMILES>
COC(=O)[C@@H]1C=C(OC(=O)c2ccc3occc3c2)C(=O)[C@H]2[C@@]1(C)CC[C@H]1C(=O)O[C@H](c3ccoc3)C[C@]21C

>  <TARGET OR SYSTEM>
UniProtKB P35372

>  <Emax / %>
84

$$$$
>  <SAMPLE SMILES>
COC(=O)[C@@H]1C=C(OC(=O)c2ccc3ccoc3c2)C(=O)[C@H]2[C@@]1(C)CC[C@H]1C(=O)O[C@H](c3ccoc3)C[C@]21C

>  <TARGET OR SYSTEM>
UniProtKB P35372

>  <Emax / %>
90

$$$$
>  <SAMPLE SMILES>
COC(=O)[C@@H]1C=C(OC(=O)c2cccc(C(N)=O)c2)C(=O)[C@H]2[C@@]1(C)CC[C@H]1C(=O)O[C@H](c3ccoc3)C[C@]21C

>  <TARGET OR SYSTEM>
UniProtKB P35372

>  <Emax / %>
0

$$$$
>  <SAMPLE SMILES>
COC(=O)[C@@H]1C=C(OC(=O)c2ccc3c(c2)CNC3=O)C(=O)[C@H]2[C@@]1(C)CC[C@H]1C(=O)O[C@H](c3ccoc3)C[C@]21C

>  <TARGET OR SYSTEM>
UniProtKB P35372

>  <Emax / %>
88

$$$$
